Numbers sourced from patent US20260007758A1.

biological target: SST2 (Homo sapiens, UniProt P30874); construct: host or cells: PathHunter CHO-K1 SST2 cells; assay: PathHunter CHO-K1 SST2 Internalization Assay; format: cell-based; settings: PathHunter CHO-K1 SST2 cells; 90 min at 37 C; luminescence; read-out: Internalization EC50
Sequence (P30874 whole entry): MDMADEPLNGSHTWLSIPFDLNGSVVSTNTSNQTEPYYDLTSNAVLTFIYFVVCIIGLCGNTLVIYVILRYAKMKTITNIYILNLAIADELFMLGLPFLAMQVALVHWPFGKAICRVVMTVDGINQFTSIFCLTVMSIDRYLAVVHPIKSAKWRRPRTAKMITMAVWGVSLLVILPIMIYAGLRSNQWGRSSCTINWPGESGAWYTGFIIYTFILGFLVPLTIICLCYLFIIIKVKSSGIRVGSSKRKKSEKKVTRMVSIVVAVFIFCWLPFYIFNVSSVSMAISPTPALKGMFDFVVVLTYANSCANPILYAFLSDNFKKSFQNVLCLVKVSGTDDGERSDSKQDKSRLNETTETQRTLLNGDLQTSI
MEASURED METRIC: pEC50
To interpret pEC50, take it as minus log10 of a concentration measured in moles per litre.

What does the data say about its pEC50? Entry: CC[C@H](C)[C@@H]([C@@H](CC(=O)N1CCC[C@H]1[C@H](OC)[C@@H](C)C(=O)N[C@H](C)[C@@H](O)c1ccccc1)OC)N(C)C(=O)[C@@H](NC(=O)[C@H](C(C)C)N(C)C(=O)OCc1ccc(NC(=O)[C@H](C)NC(=O)[C@@H](NC(=O)CCOCCC(=O)N(C)CC(=O)NCCNc2ncc(-c3cc(C)cc(F)c3)c(N3CCC(N)CC3)c2-c2nc3ccc(Cl)cc3[nH]2)C(C)C)c(O[C@@H]2O[C@H](C(=O)NCS(=O)(=O)O)[C@@H](O)[C@H](O)[C@H]2O)c1)C(C)C 8.17

====

target: SST2 (Homo sapiens, UniProt P30874); construct: host or cells: PathHunter CHO-K1 SST2 cells; assay: PathHunter CHO-K1 SST2 Internalization Assay; format: cell-based; details: PathHunter CHO-K1 SST2 cells; 90 min at 37 C; luminescence; read-out: Internalization EC50
MEASURED METRIC: pEC50
To interpret pEC50, take it as minus log10 of a concentration measured in moles per litre.

Guide cases for pEC50, answers given:
* CC[C@H](C)[C@@H]([C@@H](CC(=O)N1CCC[C@H]1[C@H](OC)[C@@H](C)C(=O)N[C@H](C)[C@@H](O)c1ccccc1)OC)N(C)C(=O)[C@@H](NC(=O)[C@H](C(C)C)N(C)C(=O)OCc1ccc(NC(=O)[C@H](CCCNC(N)=O)NC(=O)[C@@H](NC(=O)c2cc(NC(=O)CCCC(=O)N(C)CC(=O)NCCNc3ncc(-c4cc(C)cc(F)c4)c(N4CCC(N)CC4)c3-c3nc4ccc(Cl)cc4[nH]3)cc(C(=O)NC[C@@H](N)C(=O)O)c2)C(C)C)cc1)C(C)C | 8.08
* CC[C@H](C)[C@@H]([C@@H](CC(=O)N1CCC[C@H]1[C@H](OC)[C@@H](C)C(=O)N[C@H](C)[C@@H](O)c1ccccc1)OC)N(C)C(=O)[C@@H](NC(=O)[C@H](C(C)C)N(C)C(=O)OCc1ccc(NC(=O)[C@H](CCCNC(N)=O)NC(=O)[C@@H](NC(=O)[C@H](CCC(=O)O)NC(=O)CCOCCC(=O)NCCNc2ncc(-c3cc(C)cc(F)c3)c(N3CCC(N)CC3)c2-c2nc3cc(F)cc(OC)c3[nH]2)C(C)C)cc1C(=O)NCCN)C(C)C | 8.29

What does the data say about its pEC50? Entry: CC[C@H](C)[C@@H]([C@@H](CC(=O)N1CCC[C@H]1[C@H](OC)[C@@H](C)C(=O)N[C@H](C)[C@@H](O)c1ccccc1)OC)N(C)C(=O)[C@@H](NC(=O)[C@H](C(C)C)N(C)C(=O)OCc1ccc(NC(=O)[C@H](CCCNC(N)=O)NC(=O)[C@@H](NC(=O)C[C@@H](N)C(=O)NCCOCCC(=O)NCCNc2ncc(-c3cc(C)cc(F)c3)c(N3CCC(N)CC3)c2-c2nc3ccc(Cl)cc3[nH]2)C(C)C)cc1)C(C)C 8.47

What does the data say about its pEC50? Entry: CC[C@H](C)[C@@H]([C@@H](CC(=O)N1CCC[C@H]1[C@H](OC)[C@@H](C)C(=O)N[C@H](C)[C@@H](O)c1ccccc1)OC)N(C)C(=O)[C@@H](NC(=O)[C@H](C(C)C)N(C)C(=O)OCc1ccc(NC(=O)[C@H](CCCNC(N)=O)NC(=O)[C@@H](NC(=O)CCOCCC(=O)NCCNc2ncc(-c3cc(C)cc(F)c3)c(N3CCC(N)CC3)c2-c2nc3cc(Cl)ccc3[nH]2)C(C)C)c(O[C@@H]2O[C@H](C(=O)NCC(=O)O)[C@@H](O)[C@H](O)[C@H]2O)c1)C(C)C 8.35

What does the data say about its pEC50? Entry: CC[C@H](C)[C@@H]([C@@H](CC(=O)N1CCC[C@H]1[C@H](OC)[C@@H](C)C(=O)N[C@H](C)[C@@H](O)c1ccccc1)OC)N(C)C(=O)[C@@H](NC(=O)[C@H](C(C)C)N(C)C(=O)OCc1ccc(NC(=O)[C@H](CCCNC(N)=O)NC(=O)[C@@H](NC(=O)C[C@@H](N)C(=O)NCCOCCC(=O)NCCNc2ncc(-c3cc(C)cc(F)c3)c(N3CCC(NC)CC3)c2-c2nc3ccc(Cl)cc3[nH]2)C(C)C)c(O[C@@H]2O[C@H](C(=O)O)[C@@H](O)[C@H](O)[C@H]2O)c1)C(C)C 8.28

What does the data say about its pEC50? Entry: CC[C@H](C)[C@@H]([C@@H](CC(=O)N1CCC[C@H]1[C@H](OC)[C@@H](C)C(=O)N[C@H](C)[C@@H](O)c1ccccc1)OC)N(C)C(=O)[C@@H](NC(=O)[C@H](C(C)C)N(C)C(=O)OCc1ccc(NC(=O)[C@H](CCCNC(N)=O)NC(=O)[C@@H](NC(=O)c2cc(NCCOCCC(=O)NCCNc3ncc(-c4cc(C)cc(F)c4)c(N4CCC(N)CC4)c3-c3nc4ccc(Cl)cc4[nH]3)cc(C(=O)NCC(=O)O)c2)C(C)C)cc1)C(C)C 8.59

What does the data say about its pEC50? Entry: CC[C@H](C)[C@@H]([C@@H](CC(=O)N1CCC[C@H]1[C@H](OC)[C@@H](C)C(=O)N[C@H](C)[C@@H](O)c1ccccc1)OC)N(C)C(=O)[C@@H](NC(=O)[C@H](C(C)C)N(C)C(=O)OCc1ccc(NC(=O)[C@H](CCCNC(N)=O)NC(=O)[C@@H](NC(=O)CCOCCOCCC(=O)NCCNc2ncc(-c3cc(C)cc(F)c3)c(N3CCC(N)CC3)c2-c2nc3ccc(Cl)cc3[nH]2)C(C)C)cc1C(=O)NCCNC(=O)CCCCCCCCCCC(=O)O)C(C)C 8.15

What does the data say about its pEC50? Entry: CC[C@H](C)[C@@H]([C@@H](CC(=O)N1CCC[C@H]1[C@H](OC)[C@@H](C)C(=O)N[C@H](C)[C@@H](O)c1ccccc1)OC)N(C)C(=O)[C@@H](NC(=O)[C@H](C(C)C)N(C)C(=O)OCc1ccc(NC(=O)[C@H](C)NC(=O)[C@@H](NC(=O)CCOCCC(=O)NCCN(C)c2ncc(-c3cc(C)cc(F)c3)c(N3CCC(N)CC3)c2-c2nc3ccc(Cl)cc3[nH]2)C(C)C)c(O[C@@H]2O[C@H](C(=O)O)[C@@H](O)[C@H](O)[C@H]2O)c1)C(C)C 7.32

What does the data say about its pEC50? Entry: CC[C@H](C)[C@@H]([C@@H](CC(=O)N1CCC[C@H]1[C@H](OC)[C@@H](C)C(=O)N[C@H](C)[C@@H](O)c1ccccc1)OC)N(C)C(=O)[C@@H](NC(=O)[C@H](C(C)C)N(C)C(=O)OCc1ccc(NC(=O)[C@H](CCCNC(N)=O)NC(=O)[C@@H](NC(=O)[C@H](CCc2nnn[nH]2)NC(=O)CCOCCC(=O)NCCNc2ncc(-c3cc(C)cc(F)c3)c(N3CCC(N)CC3)c2-c2nc3ccc(Cl)cc3[nH]2)C(C)C)cc1C(=O)NCCN)C(C)C 8.42

====

Each item that follows carries a reported EC50.
Biological target: SST2 (Homo sapiens)
Construct: host or cells: PathHunter CHO-K1 SST2 cells
Assay: PathHunter CHO-K1 SST2 Internalization Assay
Assay type: cell-based
Conditions: PathHunter CHO-K1 SST2 cells; 90 min at 37 C; luminescence; read-out: Internalization EC50
Method: NDCs of the present invention were assessed in vitro using the human PathHunter CHO-K1 SST2 β-arrestin2 and PathHunter CHO-K1 SST2 Internalization Assays from DiscoverX. The CHO-K cells were seeded in 20 μLs of cell culture medium in a white-walled 384 well tissue culture-compatible plate at a density of 2500 cells/well. […] Luminescence was measured using a Tecan plate reader. […]
Give the number; nM is assumed, so skip it.

• CC[C@H](C)[C@@H]([C@@H](CC(=O)N1CCC[C@H]1[C@H](OC)[C@@H](C)C(=O)N[C@H](C)[C@@H](O)c1ccccc1)OC)N(C)C(=O)[C@@H](NC(=O)[C@H](C(C)C)N(C)C(=O)OCc1ccc(NC(=O)[C@H](CCCNC(N)=O)NC(=O)[C@@H](NC(=O)c2cc(NC(=O)C[C@@H](N)C(=O)NCCOCCC(=O)NCCNc3ncc(-c4cc(C)cc(F)c4)c(N4CCC(N)CC4)c3-c3nc4ccc(Cl)cc4[nH]3)cc(C(=O)NCC(=O)O)c2)C(C)C)cc1)C(C)C = 14

What does the data say about its EC50? Entry: CC[C@H](C)[C@@H]([C@@H](CC(=O)N1CCC[C@H]1[C@H](OC)[C@@H](C)C(=O)N[C@H](C)[C@@H](O)c1ccccc1)OC)N(C)C(=O)[C@@H](NC(=O)[C@H](C(C)C)N(C)C(=O)OCc1ccc(NC(=O)[C@H](CCCNC(N)=O)NC(=O)[C@@H](NC(=O)c2cc(NCCOCCOCCOCCC(=O)NCCNc3ncc(-c4cc(C)cc(F)c4)c(N4CCC(N)CC4)c3-c3nc4ccc(Cl)cc4[nH]3)cc(C(=O)O)c2)C(C)C)cc1)C(C)C 11
